# system.tested: APOL1 G1 (Homo sapiens, UniProt O14791, I384M/S342G)
# Sequence (O14791 28-398 S342G/I384M): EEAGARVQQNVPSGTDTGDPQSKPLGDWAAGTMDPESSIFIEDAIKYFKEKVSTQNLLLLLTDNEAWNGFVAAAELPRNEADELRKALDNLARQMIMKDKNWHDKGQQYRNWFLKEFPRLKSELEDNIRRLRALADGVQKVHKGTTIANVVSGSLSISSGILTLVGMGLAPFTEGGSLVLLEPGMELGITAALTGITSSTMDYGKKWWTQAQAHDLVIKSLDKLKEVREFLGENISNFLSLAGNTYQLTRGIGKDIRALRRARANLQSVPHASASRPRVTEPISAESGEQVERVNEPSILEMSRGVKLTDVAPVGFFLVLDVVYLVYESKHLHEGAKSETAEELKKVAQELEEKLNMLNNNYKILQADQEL
# test.summary: MultiTox-Fluor Multiplex Cytotoxicity Assay, tet-inducible APOL1 G1 T-REx-HEK293 cells
# Assay type: cell-based
# Design: expressed in transfected cells; host or cells: T-REx HEK293, clone G1 DC3.25 (pAAVS1-Puro-APOL1 G1)
# condition.parameters: Multi-Tox Assay; APOL1 variant not given

| compound | uom | Multi-Tox Assay Max Activity (%) |
| --- | --- | --- |
| C[C@H]1C[C@@]2(C[C@@H](c3cn(Cc4ccccn4)nn3)N1)OCC(F)(F)c1cc(Cl)sc12 [Compound 332] | % | 96.0 |
| Cc1nc([C@@H]2C[C@]3(C[C@H](C)N2)OCCc2cc(Cl)sc23)co1 (racemic) [Compound 104] | % | 99.3 |
| C[C@H]1C[C@@]2(C[C@@H](c3cn(C)c(=O)n(C)c3=O)N1)OCCc1cc(Cl)sc12 (racemic) [Compound 124] | % | 99.3 |
| Cc1c(Cn2cc([C@@H]3C[C@]4(C[C@H](C)N3)OCC(F)(F)c3cc(Cl)sc34)nn2)cnn1C [Compound 326] | % | 97.0 |
| C[C@H]1C[C@@]2(C[C@@H](c3cn(CC4(F)CCOCC4)nn3)N1)OCC(F)(F)c1cc(Cl)sc12 [Compound 329] | % | 90.0 |
| C[C@H]1C[C@@]2(C[C@@H](c3ccc(C(F)(F)F)nc3)N1)OCCc1cc(Cl)sc12 (racemic) [Compound 123] | % | 100.0 |
| C[C@H]1C[C@@]2(C[C@@H](c3cn(Cc4ccccc4S(C)(=O)=O)nn3)N1)OC[C@@H](O)c1cc(Cl)sc12 [Compound 231] | % | 95.0 |
| C[C@H]1C[C@@]2(C[C@@H](c3cccc(=O)[nH]3)N1)OCCc1cc(Cl)sc12 (racemic) [Compound 151] | % | 96.2 |
| Cc1nnc(Cn2cc([C@@H]3C[C@]4(C[C@H](C)N3)OC[C@@H](O)c3cc(Cl)sc34)nn2)[nH]1 [Compound 272] | % | 95.0 |
| C[C@H]1C[C@@]2(C[C@@H](c3cn(Cc4cccc(CO)c4)nn3)N1)OCC(F)(F)c1cc(Cl)sc12 [Compound 313] | % | 98.0 |
| CC1CC2(CC(c3cncnc3)N1)OCCc1cc(Cl)sc12 (stereo not drawn) [Compound 45] | % | 100.0 |
| CC(=O)Nc1ccc([C@@H]2C[C@]3(C[C@H](C)N2)OCCc2cc(Cl)sc23)cc1 (racemic) [Compound 50] | % | 99.7 |
| Cc1ncoc1[C@@H]1C[C@]2(C[C@H](C)N1)OCCc1cc(Cl)sc12 (racemic) [Compound 157] | % | 96.3 |
| COc1ccccc1-c1ncc([C@@H]2C[C@]3(C[C@H](C)N2)OCCc2cc(Cl)sc23)cn1 (racemic) [Compound 105] | % | 99.3 |
| CCc1cc2c(s1)C(C)COC21C[C@@H](c2cn(C)nn2)N[C@@H](C)C1 (single isomer, unassigned) [Compound 10] | % | 99.7 |

src = patent EP4810040A2
